tested on: K562; assay: NCI tumour cell line growth inhibition, 48 h
Active and inactive are the calls of the source. No stated cut-off is given here; in the data, active = GI50 up to about 1.1 µM and inactive = higher.
measure.name: GI50

The measured GI50 associated with CC(=O)N1c2ccccc2C2=NN=C(N(C)C)SC21 (centres undefined) reads 3.37 µM (inactive)

The measured GI50 associated with COc1ccc2oc(=N)c(C(N)=S)cc2c1 reads 28.4 µM (inactive)

The measured GI50 associated with CC1OC(O[C@H]2CC[C@]3(C)[C@H]4CC=C5[C@@H]6[C@@H](C)[C@H](C)CC[C@]6(C(=O)OC6OC(CO)C(O)C(O)C6O)CC[C@@]5(C(=O)O)[C@]4(C)CC[C@H]3C2(C)C)C(O)C(O)C1O (some centres undefined) reads > 100 µM (inactive)

The measured GI50 associated with CCCCCCCCCCCCCCCCCC(=O)NCCCNCCCNC(=O)CCCCCCCCCCCCCCCCC reads > 100 µM (inactive)
